FYI, the data here is from patent US9938261B2.

Provide the reported IC50 of each item.
molecular target: CSF1R (Homo sapiens, UniProt P07333); assay: HEK293 CSF1R phosphorylation MSD assay; type: cell-based; design: expressed in transfected cells; host or cells: HEK293; details: 2 h compound, human M-CSF 50 ng/mL for 5 min; read-out: HEK293 pCSF1R M-CSF MSD:IC50
Sequence (P07333 20-972): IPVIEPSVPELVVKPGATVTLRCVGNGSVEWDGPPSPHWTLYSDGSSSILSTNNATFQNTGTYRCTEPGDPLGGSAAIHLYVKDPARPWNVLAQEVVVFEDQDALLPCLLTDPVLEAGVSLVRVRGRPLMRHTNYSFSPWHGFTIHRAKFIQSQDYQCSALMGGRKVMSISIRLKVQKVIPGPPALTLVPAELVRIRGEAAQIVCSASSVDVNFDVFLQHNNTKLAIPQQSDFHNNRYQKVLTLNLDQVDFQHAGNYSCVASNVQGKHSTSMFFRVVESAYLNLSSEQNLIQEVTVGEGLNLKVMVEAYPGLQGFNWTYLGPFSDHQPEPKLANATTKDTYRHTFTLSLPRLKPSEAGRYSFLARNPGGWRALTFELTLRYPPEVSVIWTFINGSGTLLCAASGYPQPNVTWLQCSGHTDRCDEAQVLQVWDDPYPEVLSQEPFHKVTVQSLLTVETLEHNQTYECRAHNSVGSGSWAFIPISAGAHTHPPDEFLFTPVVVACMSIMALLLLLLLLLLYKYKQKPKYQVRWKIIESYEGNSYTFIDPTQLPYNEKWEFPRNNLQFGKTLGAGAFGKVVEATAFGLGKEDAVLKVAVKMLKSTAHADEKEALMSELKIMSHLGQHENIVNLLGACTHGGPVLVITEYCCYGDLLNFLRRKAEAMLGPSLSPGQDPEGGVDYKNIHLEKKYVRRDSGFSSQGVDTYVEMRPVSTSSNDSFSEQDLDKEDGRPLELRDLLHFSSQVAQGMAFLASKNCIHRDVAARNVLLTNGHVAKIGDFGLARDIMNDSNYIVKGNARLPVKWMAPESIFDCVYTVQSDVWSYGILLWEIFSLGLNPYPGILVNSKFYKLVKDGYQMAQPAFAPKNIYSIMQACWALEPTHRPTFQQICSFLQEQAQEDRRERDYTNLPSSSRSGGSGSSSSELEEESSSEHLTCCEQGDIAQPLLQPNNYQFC

Field IC50 (system: CSF1R (Homo sapiens, UniProt P07333)) for entry CNC(=O)c1cn(Cc2ccc3nc(N[C@@H]4CCCC[C@H]4O)sc3c2)cn1 = > 500 nM

Field IC50 (system: CSF1R (Homo sapiens, UniProt P07333)) for entry CCc1cnc2c(c1)ncn2Cc1ccc2nc(N[C@@H]3CCCC[C@H]3O)sc2c1 = ≤ 50 nM

Field IC50 (system: CSF1R (Homo sapiens, UniProt P07333)) for entry N=C(NO)c1cnc2c(c1)ncn2Cc1ccc2nc(N[C@@H]3CCCC[C@H]3O)sc2c1 = 50 to 200 nM

Field IC50 (system: CSF1R (Homo sapiens, UniProt P07333)) for entry CN(C)C(=O)c1cnc2c(c1)ncn2Cc1ccc2nc(N[C@@H]3CCCC[C@H]3O)sc2c1 = 50 to 200 nM

Field IC50 (system: CSF1R (Homo sapiens, UniProt P07333)) for entry CC(=O)NCc1cnc2c(c1)ncn2Cc1ccc2nc(N[C@@H]3CCCC[C@H]3O)sc2c1 = 200 to 500 nM

Field IC50 (system: CSF1R (Homo sapiens, UniProt P07333)) for entry COc1cc2c(cc1Br)ncn2Cc1ccc2nc(N[C@@H]3CCCC[C@H]3O)sc2c1 = 50 to 200 nM

Field IC50 (system: CSF1R (Homo sapiens, UniProt P07333)) for entry O[C@@H]1CCCC[C@H]1Nc1nc2ccc(Cc3cnc4ccccn34)cc2s1 = 200 to 500 nM

Field IC50 (system: CSF1R (Homo sapiens, UniProt P07333)) for entry COc1cc2ncn(Cc3ccc4nc(N[C@@H]5CCCC[C@H]5O)sc4c3)c2cc1C#N = ≤ 50 nM

Field IC50 (system: CSF1R (Homo sapiens, UniProt P07333)) for entry O[C@@H]1Cc2ccccc2[C@H]1Nc1nc2ccc(Cn3cnc4cccnc43)cc2s1 = 50 to 200 nM
